Sourced from PubChem BioAssay (Tox21)

Test: qHTS assay to identify small molecule antagonists of the constitutive androstane receptor (CAR) signaling pathway - cell viability counter screen (AID 1224837); note: nearly all actives have a fitted effect of over 45% in size
Conditions: HepG2-CYP2B6-hCAR viability, CellTiter-Fluor, 23 h, co-treated with 50 nM CITCO; series mostly up to 92.4 µM
Results filed as inconclusive are left out. Activity calls are given as the source filed them. Calls come from the whole dose curve; as a rule, active = well fitted cell-killing curve with a large enough effect in the repeat runs; inconclusive = weak or mixed curves, or effect the other way; inactive = flat fitted curve, though single readings scatter.
Write down one outcome, taken from yes = active, no = inactive

Record excerpt, results attached:
- compound: "O=c1cc(-c2ccccc2)oc2ccc3ccccc3c12"
  classLabel: "no"
- compound: "O=C1NC(=O)c2cc([N+](=O)[O-])ccc21"
  classLabel: "no"

Query block: Each compound tested received a call. Report the one for c1ccc(C[n+]2cccc3ccccc32)cc1 .
Result block: no

Query block: Another: O=C=Nc1ccc(Cl)c(Cl)c1
Result block: no

Query block: Then what about the compound CC1(C)[C@H](C(=O)O)N2C(=O)C[C@H]2S1(=O)=O ?
Result block: no

Query block: Another compound: O=C(O)C[C@H](NC(=O)OCc1ccccc1)C(=O)O
Result block: no

Query block: And C=C(C)[C@@H]1CCC2=CCC[C@@H](C)[C@]2(C)C1 ?
Result block: no

Query block: Likewise for C/C=C(/C(=C/C)c1ccc(O)cc1)c1ccc(O)cc1 ?
Result block: no

Query block: Continue with CC(CCC(=O)O)C(=O)O (configuration not stated)
Result block: no

---

Test: qHTS assay to identify small molecule agonists of the RXR signaling pathway - cell viability counter screen (AID 1159529); note: nearly all actives have a fitted effect of over 50% in size
Settings: RXR-alpha-bla HEK293T viability, CellTiter-Glo, 16 h; series mostly up to 76.8 µM
Results filed as inconclusive are left out. Active and inactive are the calls of the source. Calls come from the whole dose curve; as a rule, active = well fitted cell-killing curve with a large enough effect in the repeat runs; inconclusive = weak or mixed curves, or effect the other way; inactive = no such curve, though single readings can be large or run the other way.
Assign a class; possible classes are active, inactive

Here's what some known entries look like.
- compound: "CCCCCCCC/C=C\\CCCCCCCCCCCC(=O)O"
  classLabel: "inactive"
- compound: "Cc1cc2c(OCC(CNC(C)(C)C)OC(=O)c3ccccc3)cccc2[nH]1 (stereo not drawn)"
  classLabel: "inactive"
- compound: "CN(C)CCN1C(=O)c2ccccc2N(C)c2ccccc21"
  classLabel: "inactive"
- compound: "N#[N+]c1ccc2c(S(=O)(=O)[O-])cccc2c1O"
  classLabel: "inactive"
- compound: "CCCCCCCCOc1ccc(C(=O)O)cc1"
  classLabel: "inactive"
- compound: "c1ccc(C[n+]2cccc3ccccc32)cc1"
  classLabel: "inactive"
- compound: "OCCN1CCN(CCCN2c3ccccc3Sc3ccc(Cl)cc32)CC1"
  classLabel: "active"

Below: the item to evaluate.
Query block: // outcome(item) with item = CCC1NC(=O)c2cc(S(N)(=O)=O)c(Cl)cc2N1 (stereo not drawn)
Result block: inactive

---

Assay: qHTS assay to identify small molecule antagonists of the retinoic acid receptor (RAR) signaling pathway (AID 1159552; note: nearly all actives have a fitted effect of over 50% in size)
Conditions: C3RL4 RARE luciferase reporter, retinol-stimulated, 6 h; series mostly up to 92.4 µM
Records with an inconclusive call do not appear. Activity calls are given as the source filed them. Calls follow the shape of the dose curve; as a rule, active = well fitted inhibition curve with a large enough effect in the repeat runs; inconclusive = weak or mixed curves, or effect the other way; inactive = no such curve, though single readings can be large or run the other way.
Hello, when you answer, please use one of the following outcomes: 1.0 for active, 0.0 for inactive

- molSmiles: "CC(=O)OCC[N+](C)(C)C"
  classLabel: 0.0
- molSmiles: "CCn1cc(C(=O)O)c(=O)c2cc(F)c(N3CCNCC3)cc21"
  classLabel: 0.0
- molSmiles: "Clc1cc(Cl)nc(Cl)n1"
  classLabel: 0.0

Read the next record carefully.
Query block: I would be grateful if you could indicate the recorded call for CC(=O)NC1(c2cccc(F)c2)CCN(CC[C@@]2(c3ccc(Cl)c(Cl)c3)CN(c3ccccc3)C(=O)CO2)CC1 .
Result block: 1.0
